# maps each entry to its t1/2
experiment: Half life in CD-1 mouse microsomes measured up to 1 hr by LC-MS analysis; type: ADME, Microsome

{"columns": ["CHEMICAL SMILES", "UNITS LABEL", "LIMIT SIGN", "t1/2"],
 "data": [
  ["O=C(CN1CCOCC1)Nc1ccc2c(-c3cc4ccccc4o3)ccnc2c1O", "min", "=", 30.18],
  ["CC(=O)Nc1ccc2c(-c3cc4ccccc4o3)ccnc2c1O", "min", ">", 60],
  ["O=C(CCN1CCOCC1)Nc1ccc2c(-c3cc(F)ccc3O)ccnc2c1O", "min", "=", 8.53],
  ["O=C(CCN1CCOCC1)Nc1ccc2c(-c3cc4ccccc4o3)ccnc2c1O", "min", "=", 14],
  ["CC(=O)Nc1ccc2c(-c3cc(F)ccc3O)ccnc2c1O", "min", "=", 6.72]
]}

###

test: Clearance in CD-1 mouse at 50 mg/kg, ip by LC-MS/MS analysis; type: ADME, organism-based; details: in vivo
Quick rule for you: CL/F under 100 mL/min/kg gets criterion met, anything else gets criterion not met.

{"columns": ["CHEMICAL SMILES", "GROUP"],
 "data": [
  ["O=C(CCN1CCOCC1)Nc1ccc2c(-c3cc4ccccc4o3)ccnc2c1O", "criterion met"],
  ["O=C(CCN1CCOCC1)Nc1ccc2c(-c3cc(F)ccc3O)ccnc2c1O", "criterion met"],
  ["CC(=O)Nc1ccc2c(-c3cc(F)ccc3O)ccnc2c1O", "criterion met"],
  ["CC(=O)Nc1ccc2c(-c3cc4ccccc4o3)ccnc2c1O", "criterion not met"],
  ["O=C(CN1CCOCC1)Nc1ccc2c(-c3cc4ccccc4o3)ccnc2c1O", "criterion not met"]
]}

###

assay: Drug metabolism in CD-1 mouse active microsomes assessed as metabolite formation at rate of first-order kinetics by LC-MS/MS analysis; format: ADME, Microsome

{"columns": ["CHEMICAL SMILES", "Drug metabolism"],
 "data": [
  ["CC(=O)Nc1ccc(-c2ccnc3c(O)c(NC(C)=O)ccc23)cc1", "Metabolite_Detected"],
  ["CC(=O)Nc1ccc2c(-c3cccc(C(F)(F)F)c3)ccnc2c1O", "Metabolite_Detected"],
  ["CC(=O)Nc1ccc2c(-c3ccsc3)ccnc2c1O", "Metabolite_Notdetected"],
  ["CC(=O)Nc1ccc2c(-c3ccccc3)ccnc2c1O", "Metabolite_Notdetected"],
  ["O=C(CCN1CCOCC1)Nc1ccc2c(-c3cc4ccccc4o3)ccnc2c1O", "Metabolite_Detected"],
  ["CC(=O)Nc1ccc2c(-c3cc4ccccc4o3)ccnc2c1O", "Metabolite_Detected"],
  ["O=C(CN1CCOCC1)Nc1ccc2c(-c3cc4ccccc4o3)ccnc2c1O", "Metabolite_Detected"]
]}

###

experiment: Cmax in CD-1 mouse at 50 mg/kg, ip by LC-MS/MS analysis; type: ADME, organism-based; design: dose 50 mg/kg, route intraperitoneal; details: in vivo
Mark each entry 1 (yes) if its Cmax sits below 7000 ng/mL, and 0 (no) for all others.

{"columns": ["CHEMICAL SMILES", "GROUP"],
 "data": [
  ["CC(=O)Nc1ccc2c(-c3cc4ccccc4o3)ccnc2c1O", "1 (yes)"],
  ["O=C(CCN1CCOCC1)Nc1ccc2c(-c3cc(F)ccc3O)ccnc2c1O", "0 (no)"],
  ["O=C(CN1CCOCC1)Nc1ccc2c(-c3cc4ccccc4o3)ccnc2c1O", "1 (yes)"],
  ["CC(=O)Nc1ccc2c(-c3cc(F)ccc3O)ccnc2c1O", "0 (no)"]
]}

Source listed as ChEMBL document CHEMBL4321838.
